test system: Human immunodeficiency virus 1; assay: Inhibitory activity was determined by measuring accumulation of viral RNA transcript after infection of cells with HIV-1; format: functional
endpointName: IC90 (nM)
Note: unit nM is implicit; provide only the numeric part.

Previously resolved entries follow.
CC(C)(C)c1cccc(C[C@@H]2[C@H](O)[C@@H](O)[C@@H](Cc3cccc(C(C)(C)C)c3)N(Cc3ccc4[nH]nc(N)c4c3)C(=O)N2Cc2ccc3[nH]nc(N)c3c2)c1: 390
Cc1ccc(C)c(C[C@@H]2[C@H](O)[C@@H](O)[C@@H](Cc3cc(C)ccc3C)N(Cc3ccc4[nH]nc(N)c4c3)C(=O)N2Cc2ccc3[nH]nc(N)c3c2)c1: 300
CC(C)c1ccc(C[C@@H]2[C@H](O)[C@@H](O)[C@@H](Cc3ccc(C(C)C)cc3)N(Cc3ccc4[nH]nc(N)c4c3)C(=O)N2Cc2ccc3[nH]nc(N)c3c2)cc1: 410

Request: Hello, please tell me recorded IC90 for this one: CCc1ccc(C[C@@H]2[C@H](O)[C@@H](O)[C@@H](Cc3ccc(CC)cc3)N(Cc3ccc4[nH]nc(N)c4c3)C(=O)N2Cc2ccc3[nH]nc(N)c3c2)cc1
Response: 300

Request: Hello, please tell me recorded IC90 for this one: Nc1[nH]nc2ccc(CN3C(=O)N(Cc4ccc5n[nH]c(N)c5c4)[C@H](Cc4ccccc4)[C@H](O)[C@@H](O)[C@H]3Cc3ccccc3)cc12
Response: 2760

Request: Hello, please tell me recorded IC90 for this one: Cc1cc(C)cc(C[C@@H]2[C@H](O)[C@@H](O)[C@@H](Cc3cc(C)cc(C)c3)N(Cc3ccc4[nH]nc(N)c4c3)C(=O)N2Cc2ccc3[nH]nc(N)c3c2)c1
Response: 540

Request: Hello, please tell me recorded IC90 for this one: CC(C)(C)c1ccc(C[C@@H]2[C@H](O)[C@@H](O)[C@@H](Cc3ccc(C(C)(C)C)cc3)N(Cc3ccc4[nH]nc(N)c4c3)C(=O)N2Cc2ccc3[nH]nc(N)c3c2)cc1
Response: 100

Request: Hello, please tell me recorded IC90 for this one: CCCCc1ccc(C[C@@H]2[C@H](O)[C@@H](O)[C@@H](Cc3ccc(CCCC)cc3)N(Cc3ccc4[nH]nc(N)c4c3)C(=O)N2Cc2ccc3[nH]nc(N)c3c2)cc1
Response: 180

Request: Hello, please tell me recorded IC90 for this one: Cc1cccc(C[C@@H]2[C@H](O)[C@@H](O)[C@@H](Cc3cccc(C)c3)N(Cc3ccc4[nH]nc(N)c4c3)C(=O)N2Cc2ccc3[nH]nc(N)c3c2)c1
Response: 740

Request: Hello, please tell me recorded IC90 for this one: Cc1ccc(C[C@@H]2[C@H](O)[C@@H](O)[C@@H](Cc3ccc(C)cc3)N(Cc3ccc4[nH]nc(N)c4c3)C(=O)N2Cc2ccc3[nH]nc(N)c3c2)cc1
Response: 780

Request: Hello, please tell me recorded IC90 for this one: CCCc1ccc(C[C@@H]2[C@H](O)[C@@H](O)[C@@H](Cc3ccc(CCC)cc3)N(Cc3ccc4[nH]nc(N)c4c3)C(=O)N2Cc2ccc3[nH]nc(N)c3c2)cc1
Response: 290
